Target: human SETD7 (Homo sapiens)
Test: Steady-state kinetics of SETD7-catalysed methylation
Format: biochemical
Settings: peptide 1–150 µM, SAM 30 µM, SETD7 50–300 nM, 37 °C, 10 or 20 min, MALDI-TOF MS, mean ± SD, n = 3; SD
Non-standard residues stand in square brackets, D forms with d. No end group written: not given here. βAla = NCCC(=O)O
RECORDED_METRIC: k cat (s⁻¹)
Your answer is read as s⁻¹, so omit the unit and give the number.

// worked examples, k cat included
D-ARTKQEARKSTGG (sidechain bridge or staple) [Peptide 6]
0.23
VRTKQEARKSTGG (also: sidechain bridge or staple (positions not given here)) [Peptide 8]
0.0423
ARTKQTARKSTGG [Peptide 1, reference compound]
0.014
[βAla]RTKQEARKSTGG (also: sidechain bridge or staple (positions not given here)) [Peptide 11]
0.0495
FRTKQEARKSTGG (also: sidechain bridge or staple (positions not given here)) [Peptide 9]
0.0493

## Task For the substance AzaRTKQPraARKSTGG (sidechain bridge or staple) [Peptide 3] , report k cat.
## Result 0.0598

## Task For the substance GRTKQEARKSTGG (also: sidechain bridge or staple (positions not given here)) [Peptide 7] , report k cat.
## Result 0.046

## Task For the substance ARTKQDARKSTGG (also: sidechain bridge or staple (positions not given here)) [Peptide 5] , report k cat.
## Result 0.031

----------
Reported k cat/Km is given for each of the following substances.
Biological target: human SETD7 (Homo sapiens, UniProt Q8WTS6)
Sequence (Q8WTS6 1-366): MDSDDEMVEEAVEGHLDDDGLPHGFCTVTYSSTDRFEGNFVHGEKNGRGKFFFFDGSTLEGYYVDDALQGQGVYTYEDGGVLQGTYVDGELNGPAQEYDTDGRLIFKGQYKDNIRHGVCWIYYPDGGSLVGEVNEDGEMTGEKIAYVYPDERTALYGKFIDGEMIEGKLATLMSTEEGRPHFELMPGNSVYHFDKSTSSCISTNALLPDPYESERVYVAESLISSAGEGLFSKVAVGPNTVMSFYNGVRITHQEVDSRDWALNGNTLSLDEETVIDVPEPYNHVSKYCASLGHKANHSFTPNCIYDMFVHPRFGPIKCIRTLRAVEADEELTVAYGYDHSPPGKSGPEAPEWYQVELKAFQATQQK
Assay: Steady-state kinetics of SETD7-catalysed methylation
Assay type: biochemical
Settings: steady-state, SAM 30 µM, 37 °C, n = 3
Non-standard residues stand in square brackets, D forms with d. No end group written: not given here. βAla = NCCC(=O)O
Your answer is read as M⁻¹ s⁻¹, so omit the unit and give the number.

GRTKQEARKSTGG (also: sidechain bridge or staple (positions not given here)) [Peptide 7]
25000
ARTKQTARKSTGG [Peptide 1, reference compound]
233
VRTKQEARKSTGG (also: sidechain bridge or staple (positions not given here)) [Peptide 8]
1230

Proceed to the following item.
## Task For the substance [βAla]RTKQEARKSTGG (also: sidechain bridge or staple (positions not given here)) [Peptide 11] , report k cat/Km.
## Result 2830

----------
Target: human SETD7 (Homo sapiens, UniProt Q8WTS6)
Sequence (Q8WTS6 1-366): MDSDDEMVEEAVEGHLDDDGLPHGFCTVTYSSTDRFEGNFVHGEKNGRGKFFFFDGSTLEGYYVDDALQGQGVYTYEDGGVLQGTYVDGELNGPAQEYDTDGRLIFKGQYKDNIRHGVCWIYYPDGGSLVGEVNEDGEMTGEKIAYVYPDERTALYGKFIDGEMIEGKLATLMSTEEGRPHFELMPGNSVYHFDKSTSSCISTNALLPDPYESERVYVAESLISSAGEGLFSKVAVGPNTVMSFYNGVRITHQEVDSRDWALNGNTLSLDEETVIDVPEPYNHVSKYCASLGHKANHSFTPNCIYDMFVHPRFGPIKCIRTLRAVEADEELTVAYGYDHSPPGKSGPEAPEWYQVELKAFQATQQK
Assay: SETD7-catalysed methylation of H3 peptides, conversion by MALDI-TOF MS
Assay type: biochemical
Conditions: SETD7 1 µM, 13-mer peptide 10 µM, SAM 30 µM, 37 °C, 3 h, MALDI-TOF MS
No end group written: not given here.
RECORDED_METRIC: methylation by SETD7 (conversion to methylated product)

// worked examples, methylation by SETD7 (conversion to methylated product) included
GRTKQEARKSTGG [Peptide 16]
~40%
GGRTKQEARKSTGG (also: sidechain bridge or staple (positions not given here)) [Peptide 13]
~91%
CRTKQCARKSTGG (also: sidechain bridge or staple (positions not given here)) [Peptide 2]
~86%

## Task For the substance AzaRTKQPraARKSTGG (sidechain bridge or staple) [Peptide 3] , report methylation by SETD7 (conversion to methylated product).
## Result ~95%

## Task For the substance RTKQEARKSTGG (also: sidechain bridge or staple (positions not given here)) [Peptide 12] , report methylation by SETD7 (conversion to methylated product).
## Result ~75%

## Task For the substance GRTKETARKSTGG (also: sidechain bridge or staple (positions not given here)) [Peptide 14] , report methylation by SETD7 (conversion to methylated product).
## Result < 5%

## Task For the substance GRTKQTERKSTGG (also: sidechain bridge or staple (positions not given here)) [Peptide 15] , report methylation by SETD7 (conversion to methylated product).
## Result ~11%

Just for reference, paper PMC12690603 is where these values come from.
